Tested on: AncSZ
Test: phosphorylation enrichment, bacterial display (enrichment ratio); higher = better substrate or ligand; peptides without Tyr show the background
Answer 0 if phosphorylation enrichment is under 0.8, and 1 if it is 0.8 or more.

Sample answers from the record:
{"columns": ["sequence entry", "target entity", "category"],
 "data": [
  ["AFGGGYGGVLT [KRT19_Y65_YF]", "AncSZ", 0],
  ["VHKEGYNKLNQ [ZNF676_Y98]", "AncSZ", 0],
  ["SYCYRYRCAPR [SUMF1_Y344_A348P]", "AncSZ", 0],
  ["DLLMQHPKAQG [FAM83C_Y600_Y600H]", "AncSZ", 0],
  ["YTGDIYSSSNL [LZTR1_Y141_N143S]", "AncSZ", 1],
  ["SVTSTYSPALN [TP53_Y126_C124S]", "AncSZ", 0]
]}

Task: phosphorylation enrichment >= 0.8 for FGEFRYRSVIK [CFTR_Y517_D513G_YF] ?
Result: 0

Task: phosphorylation enrichment >= 0.8 for HTKKNYGNSSV [HDX_Y197_A193T] ?
Result: 0

Task: phosphorylation enrichment >= 0.8 for RRDRDYTNLPS [CSF1R_Y923_E920D] ?
Result: 1

Task: phosphorylation enrichment >= 0.8 for SSAETYSRMRL [NBEAL2_Y1835] ?
Result: 0

Task: phosphorylation enrichment >= 0.8 for CTTIHYNYMCH [TP53_Y234_N239H] ?
Result: 0

Task: phosphorylation enrichment >= 0.8 for TDLAYYLVREG [ASL_Y376_K380E] ?
Result: 1

Task: phosphorylation enrichment >= 0.8 for NFSKMYCNPDA [KNL1_Y489_A486S_YF] ?
Result: 1

Task: phosphorylation enrichment >= 0.8 for LASLIYNFVLF [AQP6_Y231] ?
Result: 1

Task: phosphorylation enrichment >= 0.8 for PLDGGYFTLQI [TP53_Y327_E326G] ?
Result: 1

Task: phosphorylation enrichment >= 0.8 for EKGEEYGGGGG [TUBA1A_Y451_E447K] ?
Result: 1

Task: phosphorylation enrichment >= 0.8 for RRAKGYPIDLY [ITGB2_Y125] ?
Result: 1

Task: phosphorylation enrichment >= 0.8 for VVDVTYDDVPI [FLNB_Y1308_E1305D] ?
Result: 1

----------
Target: Fes (UniProt P07332)
Sequence (P07332 whole entry, looked up): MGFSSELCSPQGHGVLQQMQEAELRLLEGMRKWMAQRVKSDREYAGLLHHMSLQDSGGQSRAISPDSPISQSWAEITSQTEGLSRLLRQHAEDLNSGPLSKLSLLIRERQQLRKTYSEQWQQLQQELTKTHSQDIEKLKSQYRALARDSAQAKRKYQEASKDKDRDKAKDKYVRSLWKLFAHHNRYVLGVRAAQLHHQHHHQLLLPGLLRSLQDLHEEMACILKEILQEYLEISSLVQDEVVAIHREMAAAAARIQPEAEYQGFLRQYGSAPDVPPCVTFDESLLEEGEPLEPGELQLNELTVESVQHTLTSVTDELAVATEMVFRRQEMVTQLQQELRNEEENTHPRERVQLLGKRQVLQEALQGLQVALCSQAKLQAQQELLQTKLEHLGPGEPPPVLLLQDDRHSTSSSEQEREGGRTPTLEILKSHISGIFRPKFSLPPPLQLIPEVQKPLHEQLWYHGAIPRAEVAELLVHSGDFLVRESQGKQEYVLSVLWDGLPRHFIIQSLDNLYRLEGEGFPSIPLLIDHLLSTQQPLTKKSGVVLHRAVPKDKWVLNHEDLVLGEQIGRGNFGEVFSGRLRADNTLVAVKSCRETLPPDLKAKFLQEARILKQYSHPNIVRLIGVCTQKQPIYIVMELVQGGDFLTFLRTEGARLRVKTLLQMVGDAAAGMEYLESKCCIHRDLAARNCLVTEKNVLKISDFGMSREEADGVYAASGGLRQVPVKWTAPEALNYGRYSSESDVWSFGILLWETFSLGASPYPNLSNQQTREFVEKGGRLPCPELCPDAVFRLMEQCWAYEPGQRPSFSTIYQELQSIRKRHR
Assay: phosphorylation enrichment, bacterial display (enrichment ratio); higher = better substrate or ligand; peptides without Tyr show the background
reported endpoint: phosphorylation enrichment
Please respond with just the number, no unit label.

Worked cases, phosphorylation enrichment given:
{"columns": ["sequence entry", "target entity", "reported endpoint", "number"],
 "data": [
  ["GANFEYIIAEK [ECHS1_Y35]", "Fes (UniProt P07332)", "phosphorylation enrichment", 0.862],
  ["IAAEYYDNLPH [DEGS1_Y284]", "Fes (UniProt P07332)", "phosphorylation enrichment", 1.02],
  ["NGPDVYVLPVT [AATK_Y93_L97V]", "Fes (UniProt P07332)", "phosphorylation enrichment", 1.05],
  ["TFAVSYLPDMS [FLNC_Y1602_T1599A_YF]", "Fes (UniProt P07332)", "phosphorylation enrichment", 1.21],
  ["DFPIGYPSFLA [TBCK_Y153_YF]", "Fes (UniProt P07332)", "phosphorylation enrichment", 1.07]
]}

Task: Look up phosphorylation enrichment of VKANTYENFWP [GATM_Y100_K102N_YF] and report it.
Result: 1.04

Task: Look up phosphorylation enrichment of LWEGSYGKVKE [STK11_Y60_G56W] and report it.
Result: 2.28

Task: Look up phosphorylation enrichment of VRFMANTDETF [F8_Y450_Y450N] and report it.
Result: 1.12

Task: Look up phosphorylation enrichment of ATATEYHTTSH [SLC4A1_Y46_D45E] and report it.
Result: 0.509

Task: Look up phosphorylation enrichment of YIPSNYVAEDR [FRK_Y104] and report it.
Result: 0.954

----------
Measured phosphorylation enrichment, listed per entry.
System: c-Abl (mouse)
Assay: phosphorylation enrichment, bacterial display (enrichment ratio); higher = better substrate or ligand; peptides without Tyr show the background
Please respond with just the number, no unit label.

Worked cases, phosphorylation enrichment given:
{"columns": ["sequence entry", "phosphorylation enrichment"],
 "data": [
  ["DDKEYYSVHNK [MET_Y1235_Y1230D]", 0.942],
  ["PLDGGYFTLQI [TP53_Y327_E326G]", 1.09]
]}

Task: Look up phosphorylation enrichment of AQESNYRLLRR [SLC20A2_Y377] and report it.
Result: 0.984

Task: Look up phosphorylation enrichment of SLIDMYSEVLA [OPA1_Y268_D273A] and report it.
Result: 0.539

----------
Molecular target: MERTK (UniProt Q12866)
Sequence (Q12866 whole entry, looked up): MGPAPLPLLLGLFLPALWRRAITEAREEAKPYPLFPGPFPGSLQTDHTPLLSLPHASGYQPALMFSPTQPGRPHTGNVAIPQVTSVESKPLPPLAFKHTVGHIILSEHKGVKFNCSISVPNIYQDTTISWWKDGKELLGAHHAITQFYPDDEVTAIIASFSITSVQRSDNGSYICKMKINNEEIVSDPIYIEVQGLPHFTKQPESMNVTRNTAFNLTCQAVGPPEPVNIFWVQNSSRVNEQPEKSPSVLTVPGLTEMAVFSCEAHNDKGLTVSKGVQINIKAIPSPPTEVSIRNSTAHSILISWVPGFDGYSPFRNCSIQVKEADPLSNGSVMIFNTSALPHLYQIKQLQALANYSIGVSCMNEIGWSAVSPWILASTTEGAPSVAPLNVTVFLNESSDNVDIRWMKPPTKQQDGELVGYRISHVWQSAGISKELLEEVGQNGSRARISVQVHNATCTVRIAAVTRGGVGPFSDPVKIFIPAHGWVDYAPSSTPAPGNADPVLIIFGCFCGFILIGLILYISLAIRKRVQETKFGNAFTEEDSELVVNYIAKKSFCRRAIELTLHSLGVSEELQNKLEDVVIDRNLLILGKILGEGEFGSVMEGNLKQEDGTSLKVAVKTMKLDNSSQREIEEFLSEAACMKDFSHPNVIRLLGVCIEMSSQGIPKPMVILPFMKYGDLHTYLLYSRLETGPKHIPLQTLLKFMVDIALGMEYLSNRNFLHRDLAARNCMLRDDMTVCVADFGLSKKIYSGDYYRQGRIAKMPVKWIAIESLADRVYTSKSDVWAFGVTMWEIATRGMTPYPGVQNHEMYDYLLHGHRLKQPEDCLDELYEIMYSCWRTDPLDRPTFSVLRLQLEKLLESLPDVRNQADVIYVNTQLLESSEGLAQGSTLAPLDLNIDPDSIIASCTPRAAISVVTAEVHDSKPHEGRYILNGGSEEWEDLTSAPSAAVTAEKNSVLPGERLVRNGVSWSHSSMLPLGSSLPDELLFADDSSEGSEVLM
Experiment: phosphorylation enrichment, bacterial display (enrichment ratio); higher = better substrate or ligand; peptides without Tyr show the background
Measured phosphorylation enrichment, listed per entry.

Worked cases, phosphorylation enrichment given:
{"columns": ["sequence entry", "target entity", "phosphorylation enrichment"],
 "data": [
  ["AEMTGYVMTRW [MAPK13_Y182_V184M]", "MERTK (UniProt Q12866)", 0.364],
  ["VISNAYVDLSP [HSD17B4_Y602_A606S]", "MERTK (UniProt Q12866)", 0.518],
  ["KRFRIYHLATS [BRCA2_Y3009_YF]", "MERTK (UniProt Q12866)", 0.38],
  ["DIMDLYNQPEP [IL36A_Y96]", "MERTK (UniProt Q12866)", 0.481],
  ["VIESSYQVAKA [CPT1B_Y534]", "MERTK (UniProt Q12866)", 0.44],
  ["CNPLCYPTIMI [OR6K6_Y160_R159C]", "MERTK (UniProt Q12866)", 0.917],
  ["GFAGKYIAMVM [CYP19A1_Y441_C437Y_YF]", "MERTK (UniProt Q12866)", 0.525],
  ["GSERDYTFEEL [EIF2S2_Y174_YF]", "MERTK (UniProt Q12866)", 0.479]
]}

Task: Look up phosphorylation enrichment of "SKDSAYVTWEP" and report it.
Result: 1.14

Task: Look up phosphorylation enrichment of CHSDDYVHISI [TSC1_Y406_L411I] and report it.
Result: 0.457

Task: Look up phosphorylation enrichment of KIRDWYQRQRP [KRT14_Y151] and report it.
Result: 0.446

Task: Look up phosphorylation enrichment of FPRAWCRRSIA [KIAA1109_Y4272_Y4272C] and report it.
Result: 0.562

Task: Look up phosphorylation enrichment of QKFMAYLSQGW [HLCS_Y236_G241W] and report it.
Result: 0.83

Task: Look up phosphorylation enrichment of DAICYYRMENA [NPHS2_Y195] and report it.
Result: 1.28

----------
Target: SHP2-C SH2;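 also: peptide library displayed on the E. coli surface as eCPX fusions, selected cells deep-sequenced, score is each peptide's frequency after selection divided by its frequency in the input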
Experiment: SH2 binding enrichment of the phosphorylated peptide, bacterial display (enrichment ratio); higher = better substrate or ligand; peptides without Tyr show the background
Measured SH2 binding enrichment, listed per entry.
Please respond with just the number, no unit label.

Worked cases, SH2 binding enrichment given:
{"columns": ["sequence entry", "reported endpoint", "number"],
 "data": [
  ["GGMTEYNLVVV [KRAS_Y4_K5N]", "SH2 binding enrichment", 0.488],
  ["CTTIHYNYKCN [TP53_Y234_M237K]", "SH2 binding enrichment", 1.4],
  ["KKEGPYDVVVL [PARK7_Y67]", "SH2 binding enrichment", 0.629]
]}

Now for a further sequence.
Task: Look up SH2 binding enrichment of EFITRYIASLK [PSMA7_Y110_YF] and report it.
Result: 0.72

----------
System: c-Src
Experiment: phosphorylation enrichment, bacterial display (enrichment ratio); higher = better substrate or ligand; peptides without Tyr show the background
Measured phosphorylation enrichment, listed per entry.

Task: Lab note: c-Src assay, enter phosphorylation enrichment for FTNRSYDLDFD [MYC_Y12_N11S_YF] here
Result: 0.499

Task: Lab note: c-Src assay, enter phosphorylation enrichment for ETGEPYRLSPE [EIF4G1_Y311] here
Result: 0.527

Task: Lab note: c-Src assay, enter phosphorylation enrichment for HRNNNYEPNLF [BRCA2_Y57_K53R] here
Result: 0.419

----------
Tested on: Fer (mouse)
Assay: phosphorylation enrichment, bacterial display (enrichment ratio); higher = better substrate or ligand; peptides without Tyr show the background
Binning of phosphorylation enrichment into classes: Low: < 0.4; Medium: ≥ 0.4 and < 0.6; High: ≥ 0.6

{"columns": ["sequence entry", "target entity", "category"],
 "data": [
  ["EEAAGCAQESQ [CAMKV_Y491_Y491C]", "Fer (mouse)", "High"],
  ["RTLTHYKSAVK [ASNS_Y555]", "Fer (mouse)", "Low"],
  ["RQSHNYLGGFA [SYK_Y47_R45H]", "Fer (mouse)", "Low"],
  ["NMRSTYAKLAA [SEC22B_Y193_H190R]", "Fer (mouse)", "Medium"],
  ["QKFMAYLSQGW [HLCS_Y236_G241W]", "Fer (mouse)", "High"],
  ["AGGTRYRYVSQ [UCN3_Y95_R91G]", "Fer (mouse)", "Low"]
]}

Task: # classify by phosphorylation enrichment band: LARNMYDKEFF [MET_Y1230_D1228N_YF]
Result: Medium

Task: # classify by phosphorylation enrichment band: VRFMANTDETF [F8_Y450_Y450N]
Result: Medium

Task: # classify by phosphorylation enrichment band: MIHSAYALGGL [CPS1_Y590_R587H]
Result: High

Task: # classify by phosphorylation enrichment band: TSKLSYLDPRI [TOP1_Y723_N722S]
Result: High

Task: # classify by phosphorylation enrichment band: NFSKMYCNPDA [KNL1_Y489_A486S_YF]
Result: Medium

Task: # classify by phosphorylation enrichment band: FTHSDYQFGQR [PKP2_Y166_S169G_YF]
Result: Medium

Task: # classify by phosphorylation enrichment band: VDSNPYSRLMA [UBA5_Y53]
Result: High

Task: # classify by phosphorylation enrichment band: SLVVPYEPPEV [TP53_Y220_V216L]
Result: High

Task: # classify by phosphorylation enrichment band: LEDEVYAQKMK [TPM2_Y261]
Result: High
